Tested on: IGROV1 ovarian
Test: NCI-60 one-dose screen, 48 h (100 = growth as untreated, 0 = no growth, -100 = all killed)
Conditions: 10 µM unless noted
Method: Growth inhibition of the IGROV1 human tumor cell line is measured as a screen for anti-cancer activity. Cells are grown in 96 well plates and exposed to the test compound for 48 hours. Compounds are tested at a single concentration, which is 10^-5 M for most compounds. The reported endpoint is percent growth (GI% or GIPRCNT), where numbers from 0 - 100% represent growth inhibition, and numbers from -100% - 0 represent cell death. For example, a value of 40 represents 60% growth inhibition. […]
About 83,000 compounds went through this panel and 20% of them were active in at least one assay; those are over-represented in the sample as a whole.
property: growth (%)
Numbers only, in %.

{"columns": ["molecule", "property", "recorded-result"],
 "data": [
  ["Cc1c2ccccc2nc2cc3c(cc12)[C@H]1CC[C@]2(C)C(=O)CC[C@H]2[C@@H]1CC3", "growth", 101],
  ["CCCn1c(=S)sc2c(NNC(C)=O)nc(C)nc21", "growth", 37.1],
  ["COc1cc(/C=C/c2cn[nH]c2-c2ccc(C)cc2)cc(OC)c1OC", "growth", 51.9],
  ["C[N+]1=C(/C=C/c2ccccc2Cl)C(C)(C)c2ccccc21", "growth", 90.6],
  ["Clc1ccc(-c2nc(C(Cl)Cl)nc3cc(-c4ccccc4)nn23)cc1", "growth", 54.8]
]}

Each of the following entries comes with a recorded value; kindly state growth for each.
1. C=CN(C(=O)N1CCN(c2cc3c(cc2F)c(=O)c(C(=O)O)cn3C2CC2)CC1)c1nc(-c2ccccc2)cs1
2. CCCCCCCCCCCCCCCCCCOc1ccccc1CC(=O)NCC[N+](C)(C)C
3. Cc1nc2sc(C(=O)Nc3ccccn3)c(N)c2cc1C(C)O (stereo not given)
4. Cn1c(C#N)ccc1-c1ccc(F)c(NC(=O)c2ccc(F)cc2)c1
5. CC1(C)N=C(N)N=C(N)N1c1cc(Cl)ccc1Cl

Reply:
1: 105; 2: -49.7; 3: 70.4; 4: 74.2; 5: 68.4

###

system: DU-145 prostate; assay: NCI-60 one-dose screen, 48 h (100 = growth as untreated, 0 = no growth, -100 = all killed); settings: 10 µM unless noted
About 83,000 compounds went through this panel and 20% of them were active in at least one assay; those are over-represented in the sample as a whole.
# label = true if growth < 90% else false

{"columns": ["compound", "class-name"],
 "data": [
  ["O=C(NCCNC(c1ccccc1)C(NCCNC(=O)c1ccccc1)c1ccccc1)c1ccccc1 (centres undefined)", "true"],
  ["COc1ccc(-c2cn(Cc3cc4ccccc4s3)nn2)cc1OCCN1CCCCC1", "true"],
  ["Brc1ccc(Nc2nc(Nc3cnc4ccccc4c3)c3[nH]cnc3n2)cc1", "true"],
  ["CN1CCN(Cc2ccc(NC(=O)c3cncc(C#Cc4cnc(N)cc4C#N)c3)cc2C(F)(F)F)CC1", "true"],
  ["CNC(=O)c1cc(Oc2ccc3c(c2)sc2nc(-c4ccc(NC(=O)[C@@H](NC(=O)OC)C(C)C)cc4)cn23)ccn1", "true"],
  ["COc1ccc(C/C(C)=C(\\c2ccc(Cl)cc2)c2ccc(OCCN3CCCC3)cc2)cc1", "false"],
  ["O=S(=O)(Nc1ccc2ccccc2c1)c1ccc(-c2cnc(C3CC3)o2)cc1", "true"],
  ["Fc1cc2[nH]ncc2c2c3c(c(-c4cn[nH]c4C(F)(F)F)nc12)CCCC3", "true"],
  ["COc1ccc(OC)c(Nc2nnc(-c3cc(OC)c(OC)c(OC)c3)o2)c1", "false"],
  ["CC[C@H](Nc1nc(N)nc(C)c1C#N)c1nc2cccc(CN(C)c3ncc(C(=O)NO)cn3)c2c(=O)n1-c1ccccc1", "true"]
]}

Task item: I wonder whether O=C(c1ccc(Br)cc1)C(Br)C(c1ccc(Cl)cc1)C(c1ccccc1)[N+](=O)[O-] (centres undefined) has growth below 90%. Can you tell?
Reply: false

Task item: I wonder whether `Nc1c(Cl)cc(/C=C2\C=Cc3ccccc32)cc1Cl` has growth below 90%. Can you tell?
Reply: false
